Target: T1, human IgE with the M1′ sequence (long form of membrane IgE) expressed on transduced BJAB or Daudi cells (human, UniProt P01854 116-546)
T1 construct: Full-length heavy and light chains of the U266 IgE B cell receptor, retrovirally expressed; also called IgE/M1′; IgE-M1′
T1 sequence (P01854 116-546 I515L limits assumed): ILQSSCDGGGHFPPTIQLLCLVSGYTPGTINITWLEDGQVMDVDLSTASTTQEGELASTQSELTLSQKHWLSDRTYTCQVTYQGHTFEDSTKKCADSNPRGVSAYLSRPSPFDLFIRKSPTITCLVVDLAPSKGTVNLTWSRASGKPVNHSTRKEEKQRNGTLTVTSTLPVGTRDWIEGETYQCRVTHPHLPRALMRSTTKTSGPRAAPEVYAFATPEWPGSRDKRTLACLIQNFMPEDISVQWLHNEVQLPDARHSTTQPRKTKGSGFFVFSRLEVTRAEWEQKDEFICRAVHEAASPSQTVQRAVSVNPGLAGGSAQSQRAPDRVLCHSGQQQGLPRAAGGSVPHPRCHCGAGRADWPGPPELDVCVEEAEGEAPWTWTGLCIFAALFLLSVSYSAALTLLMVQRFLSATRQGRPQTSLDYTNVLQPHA
Experiment: competitive ECL binding on BJAB-IgE/M1′ cells vs biotinylated 26A11 or 47H4, 2nd IC50 column
So I've got a bunch of binders here, and I need their IC50 values.
One number for each entry, in nM.

humanized anti-IgE/M1′ antibody 26A11.v13 (antibody, V domains shown, produced as IgG) VH: EVQLVESGGGLVQPGGSLRLSCAASGYTFTDYYMMWVRQAPGKGLEWVGDINPNNYDTSYNQKFKGRFTISADTSKNTAYLQMNSLRAEDTAVYYCASKAYWGQGTLVTVSS VL: DIQMTQSPSSLSASVGDRVTITCRSSQDISSSLNWYQQKPGKAPKLLIYSTSRLHSGVPSRFSGSGSGTDFTLTISSLQPEDFATYYCQQGHTLPWTFGQGTKVEIKR ... 19

Alright, here's another binder for you.
Retrieve IC50 measured for humanized anti-IgE/M1′ antibody 26A11.v15 (antibody, V domains shown, produced as IgG) VH: EVQLVESGGGLVQPGGSLRLSCAASGYTFTDYYIMWVRQAPGKGLEWVGDINPNNYDTSYNQKFKGRFTISADTSKNTAYLQMNSLRAEDTAVYYCASKAYWGQGTLVTVSS VL: DIQMTQSPSSLSASVGDRVTITCRSSQDISSSLNWYQQKPGKAPKLLIYSTSRLHSGVPSRFSGSGSGTDFTLTISSLQPEDFATYYCQQGHTLPWTFGQGTKVEIKR and print it.
32
